Endpoint name: melting point (°C)
Give the quantity in °C, number only.

Below: 10 molecules and their reported melting point.
[[record]]
molecule = "CNC(N)=O"
scale_unit = "°C"
recorded_measurement = 103

[[record]]
molecule = "NC(=O)OCC(Cl)(Cl)Cl"
scale_unit = "°C"
recorded_measurement = 64

[[record]]
molecule = "Clc1c(Cl)c(Cl)c2c(Cl)c(Cl)c(Cl)c(Cl)c2c1Cl"
scale_unit = "°C"
recorded_measurement = 198

[[record]]
molecule = "CC(=O)Nc1ccccc1C(=O)O"
scale_unit = "°C"
recorded_measurement = 186

[[record]]
molecule = "COc1ccc2nc(N)sc2c1"
scale_unit = "°C"
recorded_measurement = 166

[[record]]
molecule = "CCCCCC(=O)Cc1cc(O)cc2c1C(=O)Oc1cc(O)c(C(=O)O)c(CCCCC)c1O2"
scale_unit = "°C"
recorded_measurement = 205

[[record]]
molecule = "O=C(O)Cc1cc(O)ccc1O"
scale_unit = "°C"
recorded_measurement = 153

[[record]]
molecule = "CC(=O)N(C)C(C)=O"
scale_unit = "°C"
recorded_measurement = -25

[[record]]
molecule = "O=C(O)c1c[nH]c2ccccc12"
scale_unit = "°C"
recorded_measurement = 206

[[record]]
molecule = "CCCCCCCCOC(=O)c1cc(O)c(O)c(O)c1"
scale_unit = "°C"
recorded_measurement = 102


Item under review: Cc1cn([C@H]2C[C@H](F)[C@@H](CO)O2)c(=O)[nH]c1=O . Reported melting point?
177

Item under review: CC(=O)c1ccc(C#N)cc1 . Reported melting point?
57.5

Item under review: Fc1c(F)c(F)c(S)c(F)c1F . Reported melting point?
-24
